Values were extracted from ChEMBL document CHEMBL1177733.

test_protocol: Cytotoxicity against human GXF251L cells after 24 hrs by propidium iodide monolayer assay
condition_info: GXF 251L
attribute_measured: IC50

Hello, please tell me recorded IC50 for this one: `COc1cccc2c1C(=O)c1c(O)c3c(c(O)c1C2=O)C[C@@](O)(C(=O)CO)C[C@@H]3O[C@H]1C[C@H](N)[C@H](O)[C@H](C)O1`
< 52 nM

###

Test system: Xanthomonas campestris
test_protocol: Antibacterial activity against Xanthomonas campestris DSM 2405 after 14-16 hrs by microtiter plate assay
condition_info: DSM 2405, 14-16 h
attribute_measured: IC50 (µM)
Value expressed in µM; do not type the unit.

State its IC50 for this molecule: O=C(N[C@H](CO)[C@H](O)c1ccc([N+](=O)[O-])cc1)C(Cl)Cl [CHLORAMPHENICOL]
3.6
